Assay: Biodistribution, PC-3 xenograft mice
Assay type: in vivo, NOD SCID mice
Details: female, NOD SCID, muscle, intravenous, total radioactivity; Mouse #2; single tracer; PC-3 xenograft; 7.3 h p.i.; 1.43 nmol; read-out: Biodistribution: Muscle
endpoint: tissue uptake at 7.3 h

Consider CC(C)C[C@H](NC(=O)C[C@H](O)[C@H](CC(C)C)NC(=O)[C@H](Cc1c[nH]cn1)NC(=O)CNC(=O)[C@@H](NC(=O)[C@H](C)NC(=O)[C@H](Cc1c[nH]c2ccccc12)NC(=O)[C@H](CCC(N)=O)NC(=O)[C@@H](Cc1ccccc1)NC(=O)CN1CCC(NC(=O)CN2CCN(CC(=O)O)CCN(CC(=O)O)CCN(CC(=O)O)CC2)CC1)C(C)C)C(N)=O [[^111In]In-RM2, metal not drawn] . Its measured tissue uptake at 7.3 h is 0.01 %ID/g

====

Experiment: Biodistribution, PC-3 xenograft mice
Format: in vivo, NOD SCID mice
Conditions: female, NOD SCID, liver, intravenous, total radioactivity; Mouse #3; single tracer; PC-3 xenograft; 4 h p.i.; 1.49 nmol; read-out: Biodistribution: Liver
endpoint: tissue uptake at 4 h (%ID/g)
Kindly provide the numeric value in %ID/g only, without the unit symbol.

Consider CC(C)C[C@H](NC(=O)C[C@H](O)[C@H](CC(C)C)NC(=O)[C@H](Cc1c[nH]cn1)NC(=O)CNC(=O)[C@@H](NC(=O)[C@H](C)NC(=O)[C@H](Cc1c[nH]c2ccccc12)NC(=O)[C@H](CCC(N)=O)NC(=O)[C@@H](Cc1ccccc1)NC(=O)CN1CCC(NC(=O)CN2CCN(CC(=O)O)CCN(CC(=O)O)CCN(CC(=O)O)CC2)CC1)C(C)C)C(N)=O [[^111In]In-RM2, metal not drawn] . Its measured tissue uptake at 4 h is 0.22

====

Assay: Biodistribution, CHO-K1-GRPR + CHO-K1-PSMA dual xenograft mice
Conditions: female, NOD SCID, mouse, heart, intravenous, 0.58 nmol, total radioactivity, Biodistribution: Heart, Mouse #4; single tracer; dual xenograft; 24.2 h p.i.; 0.58 nmol
endpoint: tissue uptake at 24.2 h (%ID/g)
Kindly provide the numeric value in %ID/g only, without the unit symbol.

Consider CC(C)C[C@H](NC(=O)C[C@H](O)[C@H](CC(C)C)NC(=O)[C@H](Cc1c[nH]cn1)NC(=O)CNC(=O)[C@@H](NC(=O)[C@H](C)NC(=O)[C@H](Cc1c[nH]c2ccccc12)NC(=O)[C@H](CCC(N)=O)NC(=O)[C@@H](Cc1ccccc1)NC(=O)CN1CCC(NC(=O)CN2CCN(CC(=O)O)CCN(CC(=O)O)CCN(CC(=O)O)CC2)CC1)C(C)C)C(N)=O [[^111In]In-RM2, metal not drawn] . Its measured tissue uptake at 24.2 h is 0.02

====

Experiment: Biodistribution, CHO-K1-GRPR + CHO-K1-PSMA dual xenograft mice
Settings: female, NOD SCID, mouse, muscle, intravenous, 1.08 nmol, total radioactivity, Biodistribution: Muscle, Mouse #6; single tracer; dual xenograft; 25.2 h p.i.; 1.08 nmol
endpoint: tissue uptake at 25.2 h (%ID/g)
Kindly provide the numeric value in %ID/g only, without the unit symbol.

Consider CC(C)C[C@H](NC(=O)C[C@H](O)[C@H](CC(C)C)NC(=O)[C@H](Cc1c[nH]cn1)NC(=O)CNC(=O)[C@@H](NC(=O)[C@H](C)NC(=O)[C@H](Cc1c[nH]c2ccccc12)NC(=O)[C@H](CCC(N)=O)NC(=O)[C@@H](Cc1ccccc1)NC(=O)CN1CCC(NC(=O)CN2CCN(CC(=O)O)CCN(CC(=O)O)CCN(CC(=O)O)CC2)CC1)C(C)C)C(N)=O [[^111In]In-RM2, metal not drawn] . Its measured tissue uptake at 25.2 h is 0.02

====

Experiment: Biodistribution, CHO-K1-GRPR + CHO-K1-PSMA dual xenograft mice
Conditions: female, NOD SCID, mouse, CHO-K1-PSMA tumor, intravenous, 1.08 nmol, total radioactivity, Biodistribution: CHO-K1-PSMA Tumor, Mouse #6; single tracer; dual xenograft; 25.2 h p.i.; 1.08 nmol
endpoint: tissue uptake at 25.2 h (%ID/g)
Kindly provide the numeric value in %ID/g only, without the unit symbol.

Consider CC(C)C[C@H](NC(=O)C[C@H](O)[C@H](CC(C)C)NC(=O)[C@H](Cc1c[nH]cn1)NC(=O)CNC(=O)[C@@H](NC(=O)[C@H](C)NC(=O)[C@H](Cc1c[nH]c2ccccc12)NC(=O)[C@H](CCC(N)=O)NC(=O)[C@@H](Cc1ccccc1)NC(=O)CN1CCC(NC(=O)CN2CCN(CC(=O)O)CCN(CC(=O)O)CCN(CC(=O)O)CC2)CC1)C(C)C)C(N)=O [[^111In]In-RM2, metal not drawn] . Its measured tissue uptake at 25.2 h is 0.09

====

Experiment: Biodistribution, PC-3 xenograft mice
Format: in vivo, NOD SCID mice
Conditions: female, NOD SCID, stomach (empty), intravenous, total radioactivity; Mouse #3; single tracer; PC-3 xenograft; 4 h p.i.; 1.49 nmol; read-out: Biodistribution: Stomach (empty)
endpoint: tissue uptake at 4 h (%ID/g)
Kindly provide the numeric value in %ID/g only, without the unit symbol.

Consider CC(C)C[C@H](NC(=O)C[C@H](O)[C@H](CC(C)C)NC(=O)[C@H](Cc1c[nH]cn1)NC(=O)CNC(=O)[C@@H](NC(=O)[C@H](C)NC(=O)[C@H](Cc1c[nH]c2ccccc12)NC(=O)[C@H](CCC(N)=O)NC(=O)[C@@H](Cc1ccccc1)NC(=O)CN1CCC(NC(=O)CN2CCN(CC(=O)O)CCN(CC(=O)O)CCN(CC(=O)O)CC2)CC1)C(C)C)C(N)=O [[^111In]In-RM2, metal not drawn] . Its measured tissue uptake at 4 h is 0.09

====

Experiment: Biodistribution, CHO-K1-GRPR + CHO-K1-PSMA dual xenograft mice
Settings: female, NOD SCID, mouse, adrenal, intravenous, 1.41 nmol, total radioactivity, Biodistribution: Adrenal, Mouse #7; single tracer; dual xenograft; 24.2 h p.i.; 1.41 nmol
endpoint: tissue uptake at 24.2 h (%ID/g)
Kindly provide the numeric value in %ID/g only, without the unit symbol.

Consider CC(C)C[C@H](NC(=O)C[C@H](O)[C@H](CC(C)C)NC(=O)[C@H](Cc1c[nH]cn1)NC(=O)CNC(=O)[C@@H](NC(=O)[C@H](C)NC(=O)[C@H](Cc1c[nH]c2ccccc12)NC(=O)[C@H](CCC(N)=O)NC(=O)[C@@H](Cc1ccccc1)NC(=O)CN1CCC(NC(=O)CN2CCN(CC(=O)O)CCN(CC(=O)O)CCN(CC(=O)O)CC2)CC1)C(C)C)C(N)=O [[^111In]In-RM2, metal not drawn] . Its measured tissue uptake at 24.2 h is 0.08

====

Assay: Biodistribution, CHO-K1-GRPR + CHO-K1-PSMA dual xenograft mice
Details: female, NOD SCID, mouse, pancreas, intravenous, 1.41 nmol, total radioactivity, Biodistribution: Pancreas, Mouse #7; single tracer; dual xenograft; 24.2 h p.i.; 1.41 nmol
endpoint: tissue uptake at 24.2 h (%ID/g)
Kindly provide the numeric value in %ID/g only, without the unit symbol.

Consider CC(C)C[C@H](NC(=O)C[C@H](O)[C@H](CC(C)C)NC(=O)[C@H](Cc1c[nH]cn1)NC(=O)CNC(=O)[C@@H](NC(=O)[C@H](C)NC(=O)[C@H](Cc1c[nH]c2ccccc12)NC(=O)[C@H](CCC(N)=O)NC(=O)[C@@H](Cc1ccccc1)NC(=O)CN1CCC(NC(=O)CN2CCN(CC(=O)O)CCN(CC(=O)O)CCN(CC(=O)O)CC2)CC1)C(C)C)C(N)=O [[^111In]In-RM2, metal not drawn] . Its measured tissue uptake at 24.2 h is 0.04

====

Experiment: Biodistribution, CHO-K1-GRPR + CHO-K1-PSMA dual xenograft mice
Conditions: female, NOD SCID, mouse, liver, intravenous, 1.41 nmol, total radioactivity, Biodistribution: Liver, Mouse #7; single tracer; dual xenograft; 24.2 h p.i.; 1.41 nmol
endpoint: tissue uptake at 24.2 h (%ID/g)
Kindly provide the numeric value in %ID/g only, without the unit symbol.

Consider CC(C)C[C@H](NC(=O)C[C@H](O)[C@H](CC(C)C)NC(=O)[C@H](Cc1c[nH]cn1)NC(=O)CNC(=O)[C@@H](NC(=O)[C@H](C)NC(=O)[C@H](Cc1c[nH]c2ccccc12)NC(=O)[C@H](CCC(N)=O)NC(=O)[C@@H](Cc1ccccc1)NC(=O)CN1CCC(NC(=O)CN2CCN(CC(=O)O)CCN(CC(=O)O)CCN(CC(=O)O)CC2)CC1)C(C)C)C(N)=O [[^111In]In-RM2, metal not drawn] . Its measured tissue uptake at 24.2 h is 0.17

====

Assay: Biodistribution, CHO-K1-GRPR + CHO-K1-PSMA dual xenograft mice
Settings: female, NOD SCID, mouse, CHO-K1-GRPR tumor, intravenous, 0.37 nmol, total radioactivity, Biodistribution: CHO-K1-GRPR Tumor, Mouse #5; single tracer; dual xenograft; 24.2 h p.i.; 0.37 nmol
endpoint: tissue uptake at 24.2 h (%ID/g)
Kindly provide the numeric value in %ID/g only, without the unit symbol.

Consider CC(C)C[C@H](NC(=O)C[C@H](O)[C@H](CC(C)C)NC(=O)[C@H](Cc1c[nH]cn1)NC(=O)CNC(=O)[C@@H](NC(=O)[C@H](C)NC(=O)[C@H](Cc1c[nH]c2ccccc12)NC(=O)[C@H](CCC(N)=O)NC(=O)[C@@H](Cc1ccccc1)NC(=O)CN1CCC(NC(=O)CN2CCN(CC(=O)O)CCN(CC(=O)O)CCN(CC(=O)O)CC2)CC1)C(C)C)C(N)=O [[^111In]In-RM2, metal not drawn] . Its measured tissue uptake at 24.2 h is 0.51
